Procedure text: antimalarial activity against Dd2 strain (AID 2302);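 further: 0% = DMSO untreated growth and 100% = chloroquine plus artemisinin killed control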
Condition summary: P. falciparum Dd2 in RBCs, LDH growth readout, 72 h; at 2 µM
The source made the active and inactive calls.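 How the source made its calls: active means growth inhibition above 50% at the single 2 µM test dose, taken to imply half-maximal potency below 2 µM; inactive means the rest.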
Choose the fitting class; nothing outside active, inactive is accepted.

• COc1ccc(CNC2CCN(C)CC2)cc1-c1ccc(OC)c(S(=O)(=O)NCc2ccccc2)c1 = active

Recorded call for FC(F)(F)c1ccccc1OCc1cc(-c2ccncc2)c(COc2ccccc2C(F)(F)F)cc1C1=CCNCC1 ?
active

Please indicate how the test categorized O=C(NCc1ccccc1)Nc1ccc(-c2ccc(-c3nc4ccc(C(F)(F)F)cc4[nH]3)cc2)cc1 .
inactive

Lab log entry: CC(C)N1CCN(CCCNc2c3ccccc3nc3ccccc23)CC1 — outcome as called in the assay?
inactive

Called result for COc1cc2nc(N3CCC(CNC(=O)c4ccc(-c5ccc(C(=O)N(C)C)cc5)cc4)CC3)nc(N)c2cc1OC
active

Identify the outcome logged in this assay for the compound shown: CN1CCc2ccc(NC(=O)Nc3ccc(-c4ccccc4)cc3)cc2C1
inactive

====

Assay system: Protein kinase 7 (PK7), Plasmodium falciparum 3D7 (PF3D7_0213400) (UniProt Q7YTF7)
Procedure text: inhibition of Plasmodium PK7 catalytic activity – biochemical, TCAMS antimalarial set, Kinase-Glo luminescence (AID 1159587)
Condition summary: recombinant PfPK7, Kinase-Glo ATP depletion luminescence
Calls of active or inactive are those of the source. How the calls were made is not given here.
Parameter measured: outcome

Solved cases (5 shown):
• CCCC(C)Nc1nc(C)cc(N[C@@H](Cc2ccccc2)C(=O)NCCOc2ccccc2)n1 (some centres undefined) = inactive
• CC(C)Cn1cc(C2CCN(CCN3CCC(CNC(=O)c4ccc(NC(=O)c5ccc(Cl)cc5)cc4)CC3)CC2)c2ccccc21 = inactive
• CCN(C)CCCn1c(N(C)C)nc2cc(-n3cnc4cc(-c5ccc(Cl)cc5)sc4c3=O)ccc21 = inactive
• CCN(CCCN1CCCCC1)c1cc(C)nc(Nc2ccc(C)cc2Br)n1 = inactive
• Cc1cc(NC(=O)NCCN2CCC(NS(=O)(=O)c3ccccc3F)CC2)c2ccccc2n1 = inactive

Record request: outcome value, item CC(CCCCOCCc1ccccc1)NCC(O)c1cc(Cl)c(N)c(Cl)c1 (centres undefined)
inactive

What outcome value was documented for this molecule, O=[N+]([O-])c1ccc2nccnc2c1 ?
inactive

Recorded outcome of CCCCCCNC(=O)C1Cc2c([nH]c3ccc(F)cc23)C2(CCN(Cc3ccccc3)CC2)N1 (centres undefined) , please.
inactive

====

Assay system: Protein kinase 7 (PK7), Plasmodium falciparum 3D7 (PF3D7_0213400)
Procedure text: inhibition of Plasmodium PK7 catalytic activity – biochemical, TCAMS antimalarial set, Kinase-Glo luminescence (AID 1159587)
Condition summary: recombinant PfPK7, Kinase-Glo ATP depletion luminescence
Calls of active or inactive are those of the source. The rule behind the calls is not given here.
Parameter measured: outcome

* CN(c1ccc(NC(=O)c2ccc(F)cc2)cc1)C1CCN(Cc2cccc(F)c2)C1 (centres undefined) | inactive
* CC(C)N1CCC(N(Cc2ccc(-c3ccc(C(F)(F)F)cc3)cc2)C(=O)Cn2c(CCc3cccc(F)c3F)cc(=O)c3c2CCC3)CC1 | inactive
* CCOC(=O)c1c(-c2ccccc2)[nH]c2c(sc3ccccc32)c1=O | inactive
* COc1cc2nc(N(C)C)nc(Nc3ccc(OCc4ccccc4)cc3)c2cc1OC | inactive
* Cc1ccc(-n2cc(CNCCCn3ccnc3)c(-c3cccc(C)c3)n2)cc1 | inactive

Hello, I am looking for reported outcome with Protein kinase 7 (PK7), Plasmodium falciparum 3D7 (PF3D7_0213400) for COc1ccc2nccc([C@@H](O)CN3CCC(NCc4ccc5nc[nH]c(=O)c5c4)CC3)c2c1 . Could you help?
inactive

Form field - read-out: outcome; system: Protein kinase 7 (PK7), Plasmodium falciparum 3D7 (PF3D7_0213400); submitted item: O=[N+]([O-])c1cccc(CNCC2CCC(CNCc3cccc([N+](=O)[O-])c3)CC2)c1 (centres undefined)
inactive

Fill in the recorded outcome for this molecule, with Protein kinase 7 (PK7), Plasmodium falciparum 3D7 (PF3D7_0213400) as test system: Cn1cnc(CCNC(=O)c2ccc(-c3ccc(-c4nc5ccc(F)cc5[nH]4)cc3)cc2)c1
inactive

Can you look up outcome on Protein kinase 7 (PK7), Plasmodium falciparum 3D7 (PF3D7_0213400) for O=C(Nc1cccc(C(F)(F)F)c1)c1cccc(S(=O)(=O)NCC2CCN(CC3CCCCC3)CC2)c1 ?
inactive

====

Reported inhibition values for a set of compounds
Assay system: L-lactate dehydrogenase (Plasmodium falciparum (isolate CDC / Honduras))
Procedure text: PfLDH activity inhibition – cell lysate, 3D7 strain, counter-screen for P. falciparum growth inhibition project (AID 2304);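 further: 0% = vehicle and 100% = reference inhibitor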
Condition summary: P. falciparum 3D7 crude extract, LDH APAD/NBT absorbance; at 2 µM; stronger effect = higher value
Write the number in % without appending the unit.

- COc1cc2c(cc1S(=O)(=O)c1ccc(COc3ccc(C(F)(F)F)cc3)cc1)CNCC2: 5
- CCc1ccc(S(=O)(=O)Nc2cccc(CCN3CCC(N4CCCCC4)CC3)c2)cc1: -4
- O=C(/C=C/c1ccc(Cl)c(Cl)c1)NCCCCCN1CCC(NC(=O)Nc2ccc(OC(F)F)cc2)CC1: 6
- CCOC(=O)c1ccc(NC(=O)N[C@@H](Cc2ccc(O)cc2)C(=O)NC2CCN(Cc3ccc4c(c3)OCO4)CC2)cc1: 3

Need inhibition, item Cc1ccc(CN2CCCN(Cc3cccc(NC(=O)c4ccc(Cl)c(Cl)c4)c3)CC2)cc1
-1

Recorded inhibition of Cc1cc(N[C@@H](Cc2ccccc2)C(=O)Nc2ccccc2)nc(NCCc2cccs2)n1 , please.
-1

====

Assay system: Calcium-dependent protein kinase 4 (Plasmodium falciparum (isolate 3D7)) (UniProt Q8IBS5)
Sequence (Q8IBS5 whole entry, looked up): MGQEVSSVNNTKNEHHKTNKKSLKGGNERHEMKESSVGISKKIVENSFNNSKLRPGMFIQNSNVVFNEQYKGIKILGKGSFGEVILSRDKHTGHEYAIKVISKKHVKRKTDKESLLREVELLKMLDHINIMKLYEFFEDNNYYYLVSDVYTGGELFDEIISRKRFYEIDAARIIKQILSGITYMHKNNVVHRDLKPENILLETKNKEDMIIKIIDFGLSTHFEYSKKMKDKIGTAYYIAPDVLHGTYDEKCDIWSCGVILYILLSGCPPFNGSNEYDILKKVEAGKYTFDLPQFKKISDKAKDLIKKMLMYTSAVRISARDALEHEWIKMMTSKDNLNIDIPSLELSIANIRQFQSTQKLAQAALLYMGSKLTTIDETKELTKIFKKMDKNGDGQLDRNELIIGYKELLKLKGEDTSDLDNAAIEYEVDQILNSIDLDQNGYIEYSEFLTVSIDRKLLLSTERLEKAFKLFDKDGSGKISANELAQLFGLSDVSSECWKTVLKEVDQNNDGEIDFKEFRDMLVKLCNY
Procedure text: PfCDPK4 kinase inhibitors, biochemical, TCAMS library (AID 1159588)
Condition summary: recombinant PfCDPK4, Kinase-Glo ATP depletion luminescence
Measured potencies and affinities stand elsewhere. Calls of active or inactive are those of the source. No cut-off is given here; in the data, nearly all actives have IC50 up to about 0.91 µM.
Parameter measured: outcome

* Cc1ccc(-n2c(=O)c3cccnc3n2CC(=O)Nc2cccc(C)c2C)cc1 | inactive
* NC(=O)N1CCN(Cc2ccc(Br)cc2)CC1 | inactive
* Cc1ccc(CCC(C)NCC(O)c2cccc(C(F)(F)F)c2)cc1 (centres undefined) | inactive
* CC(C)COc1ccc(Cl)cc1Cc1ccc(-c2nc3ccc(CCN(C)C)cc3[nH]2)o1 | inactive
* COc1ccc(C(=O)N[C@@H](CC(C)C)C(=O)N[C@H](/C=N/NC(=O)c2ccccc2)CCc2ccccc2)cc1OCCN1CCOCC1 | inactive

Value wanted: outcome (Calcium-dependent protein kinase 4 (Plasmodium falciparum (isolate 3D7)) (UniProt Q8IBS5)) of entry O=C(/C=C/c1ccc(F)cc1)NC1CCC(CCN2CCc3ccc(-n4cccn4)cc3CC2)CC1 (centres undefined)
inactive

Identify the measured outcome of Cc1cc(Cl)ccc1NC(=O)NCCCCCN1CCC(c2c[nH]c3ccccc23)CC1 for Calcium-dependent protein kinase 4 (Plasmodium falciparum (isolate 3D7)) (UniProt Q8IBS5).
inactive

Fill in the recorded outcome for this compound, with Calcium-dependent protein kinase 4 (Plasmodium falciparum (isolate 3D7)) (UniProt Q8IBS5) as test system: Cc1noc(C)c1-c1cccc(CNCc2cccc(-c3cccc(-c4nc5ccccc5[nH]4)c3)c2)c1
inactive

Request - read-out outcome | tested on Calcium-dependent protein kinase 4 (Plasmodium falciparum (isolate 3D7)) (UniProt Q8IBS5) | compound CCc1sc(N2CCC(C)CC2)nc1C(=O)Nc1ccc(F)cc1C(F)(F)F
inactive

====

Procedure text: human hepatoma cell viability loss – ATP luminescence, cytotoxicity control for P. falciparum antimalarial project, primary screen (AID 2303);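 further: 0% = DMSO wells and 100% = digitonin-killed cells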
Condition summary: HepG2 viability, 24-48 h, at 10 µM, stronger effect = higher value
Rule: measured inhibition below 20% gets label 1; anything equal to or greater than 20% gets label 0.

• Cc1c(-c2ccc3c(c2)C(NCCCN2CCCCC2)CC3)cnc(N)c1C (centres undefined) = label 1
• Cc1noc(C)c1-c1cccc(CNCc2cccc(-c3cccc(-c4nc5ccccc5[nH]4)c3)c2)c1 = label 0
• Cc1cc(Nc2cccc(C(F)(F)F)c2)nc(Nc2cccc(C(F)(F)F)c2)n1 = label 1
• Cc1cc(C)nc(-n2[nH]c(C)c(Cc3ccc(C(C)(C)C)cc3)c2=O)n1 = label 1
• CC(C)(C)OC(=O)Nc1cccc(-c2csc(N=C(N)N)n2)c1 = label 1

Hello, is inhibition of the following compound strictly smaller than 20%? COc1cccc(CNC[C@@H](O)[C@H](Cc2ccccc2)NC(=O)c2cc3c4c(c2)c(C(C)C)cn4CCS(=O)(=O)N3C)c1
label 0

Lab note: confirm whether the reported inhibition for this compound is below 20%, equality not counting. compound: Cc1cccc(-n2c(Nc3ccc(C)c(Cl)c3)nc3ccc(S(=O)(=O)NC(C)C(C)C)cc32)c1 (centres undefined)
label 1

Please state whether inhibition is below 20% for COCCNCc1nc(-c2ccc3c(Nc4ccc(F)c(O)c4)ccnc3c2)cs1
label 1

Does the reported inhibition of Cc1cc(C2CCN(CCCCNC(=O)c3ccc(-c4ccc(C(F)(F)F)cc4)cc3)CC2)c(C)cc1OCC#N stay below 20%?
label 0

hey, is inhibition for Cc1ccc(C(=O)Nc2ccc(Nc3ccnc4cc(-c5nccs5)ccc34)cc2O)cc1 lower than 20% or not?
label 0

Please let me know if Oc1ccc(CCNCCCCCCNCCCc2ccc(Cl)cc2)cc1O shows inhibition below 20%.
label 1

# TODO verify inhibition < 20% strictly for this compound: O=[N+]([O-])c1ccc(Nc2nc(NCc3ccccc3)nc(NN=Cc3ccccc3[N+](=O)[O-])n2)cc1
label 1

Field: below-cutoff. Rule: recorded inhibition strictly less than 20%. Subject: CC(C)c1ccc(CN2CCC(CNC(=O)c3cc(-c4ccccc4F)cs3)C2)cc1 (centres undefined)
label 0

Find out if reported inhibition for O=C(/C=C/c1ccc(Cl)cc1)Nc1ccc2nc(CN3CCCC3)ccc2c1 is less than 20%
label 0

Just wondering, is inhibition of Cc1c(Cc2ccccc2)c(=O)oc2c(C)c3c(cc12)CN(CC(C)c1ccccc1)CO3 (centres undefined) below 20%?
label 1
